Recorded values, source BindingDB's records for doi:10.1016/S0893-133X(01)00298-6.

Below, each entry is listed with its recorded Ki.
- target_desc: UniProt P35560
- Sequence (P35560 whole entry): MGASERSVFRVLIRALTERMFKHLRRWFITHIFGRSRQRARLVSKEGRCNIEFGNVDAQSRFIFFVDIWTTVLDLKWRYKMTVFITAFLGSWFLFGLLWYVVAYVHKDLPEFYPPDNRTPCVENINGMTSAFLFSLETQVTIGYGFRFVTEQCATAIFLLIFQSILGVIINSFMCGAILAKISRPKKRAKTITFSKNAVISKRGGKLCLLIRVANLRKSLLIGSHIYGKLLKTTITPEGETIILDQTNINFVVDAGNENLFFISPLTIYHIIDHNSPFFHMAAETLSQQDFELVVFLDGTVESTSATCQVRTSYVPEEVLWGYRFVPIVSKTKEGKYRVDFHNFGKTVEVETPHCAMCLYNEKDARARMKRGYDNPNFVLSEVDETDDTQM
quantity_measured: Ki

>>> reported_measurement("CNCC[C@H](Oc1cccc2ccccc12)c1cccs1")
"> 1000 nM"
>>> reported_measurement("COc1ccc(C(CN(C)C)C2(O)CCCCC2)cc1 (configuration not stated)")
"> 1000 nM"
